test: label from the status in PepcDB records

Biosequence: MVYKNILVGLDGSSQADNAFKVACGLANALSADLHPIWIVNRDRGMDSSFGVNEDFYRDQYHQVQDKLVSYVEDAKKAGLKVTGEALVGNIKLVLANEYPKEHGIDLIVLGNTGLNTVEKLVVGSHTSYVIRNSACDVLVVK
protein production: failed
//
Biosequence: MKEICMLLVAVILWGTAIAPTKWALESIQPFTLLFIRLFFAGGICMIFSFKELQKSVVHKKVPWKRMSLLAFTGVAGYFMFTSYGISLTSGLHVSIIDAALPLVTILFSALFLKEEIRLNYWIGIILGAIGVLFITIPSKSANQEVSLIGDILILLSTFLFAFYTVLLKRPKQEQYLSNEVFTTLTLIIGAVILLPFALVEIFYYGLPKVETWKTVLSVIYLVIGATILAYWFWNKALERVSASVSGLYLNALPLISIITSIILLNESLTWRVIMGASLVLIGVGWADKQKLCNLLKGNKVENRDC
protein production: failed
//
Biosequence: ELALWSPEVKIVELVKDCKGLGFSILDYQDPLDPTRSVIVIRSLVADGVAERSGGLLPGDRLVSVNEYCLDNTSLAEAVEILKAVPPGLVHLGIC
protein production: not failed
//
Biosequence: MEKANIGFKAGIIFEKLGETGLITIAELARRLNFAADETALAAGWLARENKIYIERRNGLLYIRKELEHHHHHH
protein production: failed
//
Biosequence: MKPRDINKLIASKIFGYEIKDDNIIKDGRYRLGIPLYSQNIESAWQVVEKLEYDVKVTKTDLKPKYQVHVFVPGGVKMVFAETAPMAICKGALASVDIELQD
protein production: not failed
